molecular target: UniProtKB P30543; experiment: Inhibition of binding of [3H]N-ethylcarboxamidoadenosine to A2-adenosine receptors in rat striatal membranes
Sequence (P30543 whole entry): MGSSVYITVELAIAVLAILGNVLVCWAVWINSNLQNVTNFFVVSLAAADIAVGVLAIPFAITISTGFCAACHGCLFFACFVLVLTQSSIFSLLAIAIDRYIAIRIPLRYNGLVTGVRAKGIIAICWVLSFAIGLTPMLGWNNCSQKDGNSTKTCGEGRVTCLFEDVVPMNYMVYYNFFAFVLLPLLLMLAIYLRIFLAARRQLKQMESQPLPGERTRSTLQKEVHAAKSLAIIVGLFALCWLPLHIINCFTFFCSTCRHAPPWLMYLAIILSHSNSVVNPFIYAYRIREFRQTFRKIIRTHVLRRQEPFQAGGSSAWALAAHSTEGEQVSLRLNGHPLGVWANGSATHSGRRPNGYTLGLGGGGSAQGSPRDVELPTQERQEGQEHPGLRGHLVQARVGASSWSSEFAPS
quantity_kind: Ki (µM)
// units = µM; emit number, no label

Study these solved cases before continuing.
structure_string: CCCn1c(=O)c2[nH]c(-c3ccc(OCC(=O)NCCNC(=O)Cc4ccc(I)s4)cc3)nc2n(CCC)c1=O
Ki, µM: 0.116

structure_string: CCCn1c(=O)c2[nH]c(-c3ccc(OCC(=O)O)cc3)nc2n(CCC)c1=S
Ki, µM: 0.315

structure_string: CCCn1c(=S)c2[nH]c(C3CCCC3)nc2n(CCC)c1=S
Ki, µM: 2.78

Form field: reported Ki of CCCn1c(=O)c2[nH]c(-c3ccc(OCC(=O)NCCN)cc3)nc2n(CCC)c1=S 0.0263
